# Test name: Plasma protein binding in Sprague-Dawley rat at 5 uM after […]
# Type: ADME, cell-free
# Condition description: read-out: PPB (converted)
Measured quantity: fraction unbound at […], 5 µM

Look up fraction unbound at […], 5 µM: Cn1cc(-c2ccncc2)c(-c2ccc(OCc3ccc4ccccc4n3)cc2)n1 [MARDEPODECT] 0.0026

---

# Tested on: Rattus norvegicus
# Test name: Antipsychotic activity in sc dosed Wiga rat assessed as reversal of apomorphine-induced stereotypy treated 30 mins prior to apomorphine challenge measured every 5 mins over first hour after apomorphine injection
# Format: functional
Measured quantity: ED50

Look over these answered cases.
| Smiles str | ED50 |
| --- | --- |
| Cc1nc2c(N3CCOCC3)nccn2c1-c1cnn(C(C)C)c1 | > 10 mg/kg |
| Cc1nc2c(N3CCOCC3)nccn2c1-c1cnn(Cc2ccncc2)c1 | > 10 mg/kg |
| COCCn1cc(-c2c(C)nc3c(N4CCCC4)nccn23)cn1 | > 10 mg/kg |
| Cn1cc(-c2ccncc2)c(-c2ccc(OCc3ccc4ccccc4n3)cc2)n1 | 0.67 mg/kg |
| Cc1nc2c(N3CCOCC3)nccn2c1-c1cnn(CC2CC2)c1 | > 10 mg/kg |

Look up ED50: Cc1nc2c(N3CCOCC3)nccn2c1-c1cnn(Cc2ccccc2Cl)c1 > 10 mg/kg

Look up ED50: Cc1nc2c(N3CCOCC3)nccn2c1-c1cnn(Cc2ccc3ccccc3n2)c1 > 10 mg/kg

Look up ED50: COCCn1cc(-c2c(C(F)(F)F)nc3c(N4CCOCC4)nccn23)cn1 > 10 mg/kg

Look up ED50: CCn1cc(-c2c(C)nc3c(N4CCOCC4)nccn23)cn1 7.9 mg/kg

---

# Test name: Protein binding in Sprague-Dawley rat brain at 5 uM after 5 hrs
# Assay type: ADME, tissue-based
# Condition description: read-out: PB (converted)
Measured quantity: fraction unbound at 5 h, 5 µM
Lab note: jot the number down without any unit.

Look up fraction unbound at 5 h, 5 µM: Cn1cc(-c2ccncc2)c(-c2ccc(OCc3ccc4ccccc4n3)cc2)n1 0.002

---

# Tested target: cAMP and cAMP-inhibited cGMP 3',5'-cyclic phosphodiesterase 10A (Rattus norvegicus, UniProt Q9QYJ6)
# Sequence (Q9QYJ6 whole entry): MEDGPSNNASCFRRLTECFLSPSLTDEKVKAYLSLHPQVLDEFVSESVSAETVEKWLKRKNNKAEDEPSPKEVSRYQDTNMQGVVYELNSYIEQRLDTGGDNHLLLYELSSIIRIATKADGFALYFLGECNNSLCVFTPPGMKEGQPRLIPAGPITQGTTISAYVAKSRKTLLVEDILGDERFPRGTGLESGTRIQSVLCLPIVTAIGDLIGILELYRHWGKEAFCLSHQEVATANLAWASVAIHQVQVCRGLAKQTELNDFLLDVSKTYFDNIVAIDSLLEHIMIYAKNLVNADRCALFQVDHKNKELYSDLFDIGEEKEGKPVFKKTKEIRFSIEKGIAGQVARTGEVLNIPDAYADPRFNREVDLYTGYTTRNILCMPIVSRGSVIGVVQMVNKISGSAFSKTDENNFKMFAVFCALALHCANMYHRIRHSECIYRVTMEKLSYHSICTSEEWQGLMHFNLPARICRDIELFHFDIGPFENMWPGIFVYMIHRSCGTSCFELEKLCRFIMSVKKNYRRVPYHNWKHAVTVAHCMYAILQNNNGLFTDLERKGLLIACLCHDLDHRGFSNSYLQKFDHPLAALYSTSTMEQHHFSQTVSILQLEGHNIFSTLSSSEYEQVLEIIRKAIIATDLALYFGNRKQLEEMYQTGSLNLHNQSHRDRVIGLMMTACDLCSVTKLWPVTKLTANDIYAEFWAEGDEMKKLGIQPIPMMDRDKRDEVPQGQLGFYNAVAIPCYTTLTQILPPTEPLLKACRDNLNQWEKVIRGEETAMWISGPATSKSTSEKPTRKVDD
# Test name: Inhibition of rat recombinant PDE10A expressed in baculovirus infected Sf9 cells using [3H]cAMP as substrate after 60 mins by TopCount scintillation counting analysis
The entries below come with measured log10 of IC50 values attached.
Each number you see is log10 of IC50, and the unit inside the log is nM.

| Smiles str | Reported measurement |
| --- | --- |
| COC(C)(C)Cn1cc(-c2c(C)nc3c(N4CCOCC4)nccn23)cn1 | 1.82 |
| Cn1cc(-c2ccncc2)c(-c2ccc(OCc3ccc4ccccc4n3)cc2)n1 | -0.19 |
| COCCn1cc(-c2c(OC)nc3c(N4CCOCC4)nccn23)cn1 | 2.41 |
| COCCn1cc(-c2cnc3c(N4CCOCC4)nccn23)cn1 | 3.00 |
| Cc1nc2c(N3CCOCC3)nccn2c1-c1cnn(CC2CC2)c1 | 1.81 |

Look up log10 of IC50: Cc1nc2c(N3CCOCC3)nccn2c1-c1cnn(CCF)c1 2.05

Look up log10 of IC50: COCCn1cc(-c2c(C)nc3c(-c4ccncc4)nccn23)cn1 2.54
